# credit: patent US20160257732A1

# Neutralization IC50, H6-HK97 per entry
- tested target: HA of ca A/teal/Hong Kong/W312/97 (H6N1) (influenza A virus)
- assay method text: cell-based or functional assay
Give just the numeric value; µg/mL need not be written.

# get_value(readout='Neutralization IC50, H6-HK97', item= Antibody 10 (antibody, V domains shown) VH: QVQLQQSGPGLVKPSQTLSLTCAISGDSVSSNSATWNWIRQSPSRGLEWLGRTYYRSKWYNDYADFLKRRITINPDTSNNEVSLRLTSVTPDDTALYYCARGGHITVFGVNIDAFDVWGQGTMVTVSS VL: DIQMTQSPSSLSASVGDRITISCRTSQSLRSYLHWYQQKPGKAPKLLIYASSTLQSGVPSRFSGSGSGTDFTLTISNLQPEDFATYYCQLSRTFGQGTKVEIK )
1.05
